Some molecules, each annotated with its measured LD50 at 408 h.
method-description: Toxicity in po dosed Kunming mouse assessed as mortality treated for 3 days measured after 17 days
Format: organism-based
test-conditions: in vivo

Worked examples, 3 molecules total:
molecule	LD50 at 408 h
C[S+]([O-])CC(=O)c1cc2ccccc2s1 (centres undefined)	> 700 mg/kg
COc1ccc(/C=C/C(=O)c2cc3ccccc3s2)cc1	> 500 mg/kg
CC(=O)c1cc2ccccc2s1	> 5000 mg/kg

From here, focus on the item given below.
Reported LD50 at 408 h, molecule CCOC(=O)c1cc2cc3c(cc2s1)OCO3 : ____ > 500 mg/kg

---

Tested on: Mus musculus
method-description: Toxicity in SAMP6 mouse assessed as pathological changes in liver at 30 mg/kg/day, po after 3 months by histomorphology
Type: organism-based
Design: route oral
test-conditions: in vivo

molecule	Activity
COc1ccc(/C=C/C(=O)c2cc3ccccc3s2)cc1	Non-toxic
C[S+]([O-])CC(=O)c1cc2ccccc2s1 (centres undefined)	Non-toxic
CC(=O)c1cc2ccccc2s1	Non-toxic
CCOC(=O)c1cc2cc3c(cc2s1)OCO3	Non-toxic
